Assay: Inhibition of HCV NS5B polymerase
Set-up: species or system Hepacivirus hominis
assayMetric: IC50 (µM)

[
  {
    "molecule": "CCCC1(CC(=O)OCC)OCCc2c1[nH]c1c(C)ccc(C#N)c21 (stereo not drawn)",
    "u": "µM",
    "modifierSign": ">",
    "quantitativeResult": 30
  },
  {
    "molecule": "CCC[C@@]1(CC(=O)O)OCCc2c1[nH]c1c(C)cc(F)c(C#N)c21",
    "u": "µM",
    "modifierSign": "=",
    "quantitativeResult": 0.63
  },
  {
    "molecule": "CCCC1(CC(=O)O)OCCc2c1[nH]c1c(F)ccc(C#N)c21 (stereo not drawn)",
    "u": "µM",
    "modifierSign": "=",
    "quantitativeResult": 1
  },
  {
    "molecule": "CCC[C@]1(CC(=O)O)OCCc2c1[nH]c1c(Cl)ccc(Cl)c21",
    "u": "µM",
    "modifierSign": "=",
    "quantitativeResult": 0.06
  },
  {
    "molecule": "CCCC1(CC(=O)O)OCCc2c1[nH]c1c(C)cc(F)c(C#N)c21 (stereo not drawn)",
    "u": "µM",
    "modifierSign": "=",
    "quantitativeResult": 0.12
  },
  {
    "molecule": "CCCC1(CC(=O)O)OCCc2c1[nH]c1c(Cl)ccc(Cl)c21 (stereo not drawn)",
    "u": "µM",
    "modifierSign": "=",
    "quantitativeResult": 0.27
  },
  {
    "molecule": "CCC[C@]1(CC(=O)O)OCCc2c1[nH]c1c(C)ccc(C#N)c21",
    "u": "µM",
    "modifierSign": "=",
    "quantitativeResult": 0.33
  },
  {
    "molecule": "CCC[C@]1(CC(=O)O)OCCc2c1[nH]c1c(F)ccc(C#N)c21",
    "u": "µM",
    "modifierSign": "=",
    "quantitativeResult": 0.44
  }
]
